measured on: AgamOr53 + AgamOrco (Anopheles gambiae, UniProt A0ABK8FS74)
Sequence (A0ABK8FS74 1-384): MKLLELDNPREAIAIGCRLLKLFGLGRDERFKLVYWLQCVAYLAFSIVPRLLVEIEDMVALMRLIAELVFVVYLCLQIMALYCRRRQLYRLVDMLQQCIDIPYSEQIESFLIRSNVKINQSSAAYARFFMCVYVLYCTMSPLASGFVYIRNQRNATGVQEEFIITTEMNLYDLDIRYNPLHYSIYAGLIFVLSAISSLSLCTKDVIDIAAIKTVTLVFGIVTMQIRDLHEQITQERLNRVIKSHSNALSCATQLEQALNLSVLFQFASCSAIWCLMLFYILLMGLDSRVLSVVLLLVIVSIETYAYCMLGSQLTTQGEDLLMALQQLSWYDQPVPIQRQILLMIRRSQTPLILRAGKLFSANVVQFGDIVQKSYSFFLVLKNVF
Sequence (Q7QCC7 whole entry partner): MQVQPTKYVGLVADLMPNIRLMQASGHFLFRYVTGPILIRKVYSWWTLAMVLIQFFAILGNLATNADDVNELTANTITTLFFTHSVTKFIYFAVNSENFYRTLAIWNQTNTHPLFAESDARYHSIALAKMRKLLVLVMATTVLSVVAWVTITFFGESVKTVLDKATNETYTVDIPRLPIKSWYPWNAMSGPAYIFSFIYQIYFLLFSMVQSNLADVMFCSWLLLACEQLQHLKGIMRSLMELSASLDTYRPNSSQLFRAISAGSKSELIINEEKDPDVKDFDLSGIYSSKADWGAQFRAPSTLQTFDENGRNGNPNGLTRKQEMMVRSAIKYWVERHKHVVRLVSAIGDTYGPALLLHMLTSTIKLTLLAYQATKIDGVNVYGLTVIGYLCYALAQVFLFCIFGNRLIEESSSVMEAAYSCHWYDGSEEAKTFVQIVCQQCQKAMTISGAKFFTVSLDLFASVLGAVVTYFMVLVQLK
test name: two-electrode voltage clamp, Xenopus oocytes
Measured EC50, listed per entry.
Answer format: numeric, µM implied, no suffix.

compound: C=C[C@@](C)(O)CCC=C(C)C [(S)-(+)-linalool]
quantity name: EC50
measured: 19.1

Query compound follows.
Need EC50, item C=C[C@](C)(O)CCC=C(C)C [(R)-(–)-linalool]
14.9

----------
measured on: AgamOr29 + AgamOrco (Anopheles gambiae, UniProt A0A1S4H074)
Sequence (A0A1S4H074 1-384): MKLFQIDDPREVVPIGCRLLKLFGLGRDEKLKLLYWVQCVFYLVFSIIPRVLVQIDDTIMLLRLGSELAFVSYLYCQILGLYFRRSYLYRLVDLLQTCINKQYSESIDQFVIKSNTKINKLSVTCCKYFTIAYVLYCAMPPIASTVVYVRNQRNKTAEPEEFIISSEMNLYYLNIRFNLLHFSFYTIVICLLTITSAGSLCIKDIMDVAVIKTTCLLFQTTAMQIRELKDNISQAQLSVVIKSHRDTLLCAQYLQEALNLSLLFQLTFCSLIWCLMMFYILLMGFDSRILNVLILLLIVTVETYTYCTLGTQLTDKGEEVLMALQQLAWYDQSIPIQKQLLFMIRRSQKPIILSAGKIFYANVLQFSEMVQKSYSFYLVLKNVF
Sequence (Q7QCC7 whole entry partner): as the sequence (Q7QCC7 whole entry partner) above
test name: two-electrode voltage clamp, Xenopus oocytes
Measured pEC50, listed per entry.
Lab note — pEC50 values are minus log10 of concentrations in M.

molecule: C=C[C@@](C)(O)CCC=C(C)C [(S)-(+)-linalool]
quantity name: pEC50
measured: 5.15

Need pEC50, item C=C[C@](C)(O)CCC=C(C)C [(R)-(–)-linalool]
4.83
